Attribution: patent US20260207654A1

target: CCL5 (Homo sapiens, UniProt P13501); experiment: Chemokine glycan microarray binding assay; settings: maximum RFU set as 100% binding, average across 2 glycan concentrations and 3 chemokine dilutions (n=6)
Sequence (P13501 24-91, species assumed): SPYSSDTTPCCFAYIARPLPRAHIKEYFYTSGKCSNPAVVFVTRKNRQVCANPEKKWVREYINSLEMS
Reported mean rank binding to CCL5 values are given for each entry in this list.
The reply should contain only the number, in %.

Solved cases (3 shown):
>  <compound>
NCCCO[C@@H]1O[C@@H](C(=O)O)[C@@H](O[C@H]2O[C@H](CO)[C@@H](O[C@@H]3O[C@@H](C(=O)O)[C@@H](O[C@H]4O[C@H](CO)[C@@H](O)[C@H](OS(=O)(=O)O)[C@H]4N)[C@H](O)[C@H]3O)[C@H](OS(=O)(=O)O)[C@H]2N)[C@H](O)[C@H]1O

>  <assay_system>
CCL5 (Homo sapiens, UniProt P13501)

>  <unit_annotation>
%

>  <mean rank binding to CCL5>
20

$$$$
>  <compound>
NCCOCCO[C@@H]1O[C@@H](C(=O)O)[C@@H](O[C@@H]2O[C@@H](C(=O)O)[C@@H](OS(=O)(=O)O)[C@H](O)[C@H]2OS(=O)(=O)O)[C@H](O)[C@H]1OS(=O)(=O)O

>  <assay_system>
CCL5 (Homo sapiens, UniProt P13501)

>  <unit_annotation>
%

>  <mean rank binding to CCL5>
38

$$$$
>  <compound>
CC(=O)NC1C(O)[C@H](O)C(CO)O[C@@H]1O[C@@H]1C(C(=O)O)O[C@@H](O[C@@H]2C(CO)O[C@H](O[C@@H]3C(C(=O)O)O[C@@H](OCCCN)C(O)C3O)C(NC(C)=O)C2O)C(O)C1O (stereo partly shown)

>  <assay_system>
CCL5 (Homo sapiens, UniProt P13501)

>  <unit_annotation>
%

>  <mean rank binding to CCL5>
1

$$$$

Let us move to another entry and its mean rank binding to CCL5.
Asked: Item: NCCOCCO[C@@H]1OC(C(=O)O)[C@@H](O[C@@H]2OC(C(=O)O)[C@@H](O[C@@H]3OC(C(=O)O)[C@@H](O)C(O)C3O)C(O)C2O)C(O)C1O (stereo partly shown) Test system: CCL5 (Homo sapiens, UniProt P13501) Read-out: mean rank binding to CCL5 Value: ?
Given back: 30

* * *

Target: UniProt:O00585
Sequence (O00585 24-134, species assumed): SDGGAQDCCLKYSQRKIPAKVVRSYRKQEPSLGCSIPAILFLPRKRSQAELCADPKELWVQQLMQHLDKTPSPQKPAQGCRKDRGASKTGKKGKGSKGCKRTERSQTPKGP
Assay: Chemokine glycan microarray binding assay
Conditions: maximum RFU set as 100% binding, average across 2 glycan concentrations and 3 chemokine dilutions (n=6)
Experimental: Microarray Studies: The compounds of the present invention were covalently immobilized on epoxy group collated glass slides. […] Bound antibodies were detected by incubating with biotinylated secondary detections (1 ng/μL) diluted in PBS, 200 μL/block at RT for 1 h. Slides were washed 4 times with PBST, then with PBS (without Tween-20) for 2 min and biotinylated antibodies were detected with Cy3-SA (1.2 μg/mL). […]
measurement_label: mean rank binding to CCL21
Please answer using the number first and the unit second.

Solved cases (6 shown):
>  <molecule>
NCCCO[C@@H]1OC(C(=O)O)[C@@H](O[C@H]2OC(COS(=O)(=O)O)[C@@H](O[C@@H]3OC(C(=O)O)[C@@H](O[C@H]4OC(COS(=O)(=O)O)[C@@H](O)C(O)C4N)C(O)C3OS(=O)(=O)O)C(O)C2N)C(O)C1OS(=O)(=O)O (stereo partly drawn)

>  <reported_value>
66%

$$$$
>  <molecule>
CC(=O)N[C@H]1[C@@H](O[C@H]2[C@H](O)[C@@H](O)[C@H](OCCCN)O[C@H]2C(=O)O)O[C@H](COP(=O)(O)O)[C@@H](O[C@@H]2O[C@@H](C(=O)O)[C@@H](O[C@H]3O[C@H](COP(=O)(O)O)[C@@H](O)[C@H](O)[C@H]3NC(C)=O)[C@H](O)[C@H]2O)[C@@H]1O

>  <reported_value>
81%

$$$$
>  <molecule>
CC(=O)NC1C(O)[C@H](O)C(CO)O[C@@H]1O[C@@H]1C(C(=O)O)O[C@@H](O[C@@H]2C(CO)O[C@H](O[C@@H]3C(C(=O)O)O[C@@H](OCCCN)C(O)C3O)C(NC(C)=O)C2O)C(O)C1O (stereo partly drawn)

>  <reported_value>
27%

$$$$
>  <molecule>
NCCOCCO[C@@H]1O[C@@H](C(=O)O)[C@@H](O[C@@H]2O[C@@H](C(=O)O)[C@@H](O[C@@H]3O[C@@H](C(=O)O)[C@@H](OS(=O)(=O)O)[C@H](O)[C@H]3OS(=O)(=O)O)[C@H](O)[C@H]2OS(=O)(=O)O)[C@H](O)[C@H]1OS(=O)(=O)O

>  <reported_value>
79%

$$$$
>  <molecule>
NCCOCCO[C@@H]1O[C@@H](C(=O)O)[C@@H](O[C@@H]2O[C@@H](C(=O)O)[C@@H](OS(=O)(=O)O)[C@H](O)[C@H]2OS(=O)(=O)O)[C@H](O)[C@H]1OS(=O)(=O)O

>  <reported_value>
71%

$$$$
>  <molecule>
NCCOCCO[C@@H]1OC(C(=O)O)[C@@H](O[C@@H]2OC(C(=O)O)[C@@H](O[C@@H]3OC(C(=O)O)[C@@H](O[C@@H]4OC(C(=O)O)[C@@H](O)C(O)C4O)C(O)C3O)C(O)C2O)C(O)C1O (stereo partly drawn)

>  <reported_value>
86%

$$$$

Asked: Tell me the measured mean rank binding to CCL21 of NCCOCCO[C@@H]1OC(C(=O)O)[C@@H](O[C@@H]2OC(C(=O)O)[C@@H](O)C(O)C2O)C(O)C1O (stereo partly drawn) , please.
Given back: 48%

Asked: Would you mind doing NCCOCCO[C@@H]1OC(C(=O)O)[C@@H](O[C@@H]2OC(C(=O)O)[C@@H](O[C@@H]3OC(C(=O)O)[C@@H](O)C(O)C3O)C(O)C2O)C(O)C1O (stereo partly drawn) as well?
Given back: 83%

Asked: Would you mind doing NCCCO[C@@H]1O[C@@H](C(=O)O)[C@@H](O[C@H]2O[C@H](CO)[C@@H](O[C@@H]3O[C@@H](C(=O)O)[C@@H](O[C@H]4O[C@H](CO)[C@@H](O)[C@H](OS(=O)(=O)O)[C@H]4N)[C@H](O)[C@H]3O)[C@H](OS(=O)(=O)O)[C@H]2N)[C@H](O)[C@H]1O as well?
Given back: 83%

* * *

molecular target: CCL5 (Homo sapiens); assay: Chemokine glycan microarray binding assay; conditions: maximum RFU set as 100% binding, average across 2 glycan concentrations and 3 chemokine dilutions (n=6)
Reported mean rank binding to CCL5 values are given for each entry in this list.
The reply should contain only the number, in %.

Solved cases (2 shown):
>  <substance_smiles>
CC(=O)N[C@H]1[C@@H](O[C@H]2[C@H](O)[C@@H](OP(=O)(O)O)[C@H](OCCCN)O[C@H]2C(=O)O)O[C@H](COP(=O)(O)O)[C@@H](O[C@@H]2O[C@@H](C(=O)O)[C@@H](O[C@H]3O[C@H](COP(=O)(O)O)[C@@H](O)[C@H](O)[C@H]3NC(C)=O)[C@H](O)[C@H]2OP(=O)(O)O)[C@@H]1O

>  <reported_value>
14

$$$$
>  <substance_smiles>
NCCCO[C@@H]1O[C@@H](C(=O)O)[C@@H](O[C@H]2O[C@H](COS(=O)(=O)O)[C@@H](O[C@@H]3O[C@@H](C(=O)O)[C@@H](O[C@H]4O[C@H](COS(=O)(=O)O)[C@@H](O)[C@H](OS(=O)(=O)O)[C@H]4N)[C@H](O)[C@H]3O)[C@H](OS(=O)(=O)O)[C@H]2N)[C@H](O)[C@H]1O

>  <reported_value>
82

$$$$

Let us move to another entry and its mean rank binding to CCL5.
Asked: Tell me the measured mean rank binding to CCL5 of NCCOCCO[C@@H]1O[C@@H](C(=O)O)[C@@H](O[C@@H]2O[C@@H](C(=O)O)[C@@H](O[C@@H]3O[C@@H](C(=O)O)[C@@H](OS(=O)(=O)O)[C@H](O)[C@H]3OS(=O)(=O)O)[C@H](O)[C@H]2OS(=O)(=O)O)[C@H](O)[C@H]1OS(=O)(=O)O , please.
Given back: 75

* * *

biological target: CXCL10 (Homo sapiens); experiment: Chemokine glycan microarray binding assay; conditions: maximum RFU set as 100% binding, average across 2 glycan concentrations and 3 chemokine dilutions (n=6)
Sequence (P02778 22-98, species assumed): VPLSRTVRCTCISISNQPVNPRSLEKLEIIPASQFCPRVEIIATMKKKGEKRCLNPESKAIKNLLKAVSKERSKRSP
Class key for mean rank binding to CXCL10 values: lo = under 40%, mid = from 40% up to 70%, hi = 70% and over

Examples with answers:
>  <compound>
CC(=O)NC1C(O)[C@H](O)C(CO)O[C@@H]1O[C@@H]1C(C(=O)O)O[C@@H](O[C@@H]2C(CO)O[C@H](O[C@@H]3C(C(=O)O)O[C@@H](OCCCN)C(O)C3O)C(NC(C)=O)C2O)C(O)C1O (some centres unmarked)

>  <assay_system>
CXCL10 (Homo sapiens)

>  <assigned_category>
lo

$$$$
>  <compound>
CC(=O)NC1C(O)[C@H](O)C(CO)O[C@@H]1O[C@@H]1C(C(=O)O)O[C@@H](O[C@@H]2C(CO)O[C@H](O[C@@H]3C(C(=O)O)O[C@@H](OCCCN)C(OS(=O)(=O)O)C3O)C(NC(C)=O)C2O)C(OS(=O)(=O)O)C1O (some centres unmarked)

>  <assay_system>
CXCL10 (Homo sapiens)

>  <assigned_category>
lo

$$$$
>  <compound>
NCCOCCO[C@@H]1OC(C(=O)O)[C@@H](O[C@@H]2OC(C(=O)O)[C@@H](O[C@@H]3OC(C(=O)O)[C@@H](O)C(O)C3O)C(O)C2O)C(O)C1O (some centres unmarked)

>  <assay_system>
CXCL10 (Homo sapiens)

>  <assigned_category>
hi

$$$$
>  <compound>
NCCOCCO[C@@H]1OC(C(=O)O)[C@@H](O[C@@H]2OC(C(=O)O)[C@@H](O)C(O)C2O)C(O)C1O (some centres unmarked)

>  <assay_system>
CXCL10 (Homo sapiens)

>  <assigned_category>
mid

$$$$
>  <compound>
CC(=O)N[C@H]1[C@@H](O[C@H]2[C@H](O)[C@@H](OP(=O)(O)O)[C@H](OCCCN)O[C@H]2C(=O)O)O[C@H](COP(=O)(O)O)[C@@H](O[C@@H]2O[C@@H](C(=O)O)[C@@H](O[C@H]3O[C@H](COP(=O)(O)O)[C@@H](O)[C@H](O)[C@H]3NC(C)=O)[C@H](O)[C@H]2OP(=O)(O)O)[C@@H]1O

>  <assay_system>
CXCL10 (Homo sapiens)

>  <assigned_category>
mid

$$$$
>  <compound>
NCCOCCO[C@@H]1OC(C(=O)O)[C@@H](O[C@@H]2OC(C(=O)O)[C@@H](O[C@@H]3OC(C(=O)O)[C@@H](O[C@@H]4OC(C(=O)O)[C@@H](O)C(O)C4O)C(O)C3O)C(O)C2O)C(O)C1O (some centres unmarked)

>  <assay_system>
CXCL10 (Homo sapiens)

>  <assigned_category>
hi

$$$$
>  <compound>
NCCCO[C@@H]1OC(C(=O)O)[C@@H](O[C@H]2OC(COS(=O)(=O)O)[C@@H](O[C@@H]3OC(C(=O)O)[C@@H](O[C@H]4OC(COS(=O)(=O)O)[C@@H](O)C(O)C4N)C(O)C3OS(=O)(=O)O)C(O)C2N)C(O)C1OS(=O)(=O)O (some centres unmarked)

>  <assay_system>
CXCL10 (Homo sapiens)

>  <assigned_category>
hi

$$$$
>  <compound>
NCCOCCO[C@@H]1O[C@@H](C(=O)O)[C@@H](O[C@@H]2O[C@@H](C(=O)O)[C@@H](O[C@@H]3O[C@@H](C(=O)O)[C@@H](O[C@@H]4O[C@@H](C(=O)O)[C@@H](OS(=O)(=O)O)[C@H](O)[C@H]4OS(=O)(=O)O)[C@H](O)[C@H]3OS(=O)(=O)O)[C@H](O)[C@H]2OS(=O)(=O)O)[C@H](O)[C@H]1OS(=O)(=O)O

>  <assay_system>
CXCL10 (Homo sapiens)

>  <assigned_category>
hi

$$$$
>  <compound>
NCCCO[C@@H]1OC(C(=O)O)[C@@H](O[C@H]2OC(COS(=O)(=O)O)[C@@H](O[C@@H]3OC(C(=O)O)[C@@H](O[C@H]4OC(COS(=O)(=O)O)[C@@H](O)[C@H](O)C4N)C(O)[C@@H]3O)[C@H](O)C2N)C(O)[C@@H]1O (some centres unmarked)

>  <assay_system>
CXCL10 (Homo sapiens)

>  <assigned_category>
lo

$$$$
>  <compound>
NCCOCCO[C@@H]1O[C@@H](C(=O)O)[C@@H](O[C@@H]2O[C@@H](C(=O)O)[C@@H](OS(=O)(=O)O)[C@H](O)[C@H]2OS(=O)(=O)O)[C@H](O)[C@H]1OS(=O)(=O)O

>  <assay_system>
CXCL10 (Homo sapiens)

>  <assigned_category>
mid

$$$$

Asked: Hey, which category is NCCOCCO[C@@H]1O[C@@H](C(=O)O)[C@@H](O[C@@H]2O[C@@H](C(=O)O)[C@@H](O[C@@H]3O[C@@H](C(=O)O)[C@@H](O[C@@H]4O[C@@H](C(=O)O)[C@@H](OS(=O)(=O)O)[C@H](O)[C@H]4O)[C@H](O)[C@H]3O)[C@H](O)[C@H]2O)[C@H](O)[C@H]1O in, do you know?
Given back: hi
